Target: Kelch-like ECH-associated protein 1 (Homo sapiens) (UniProt Q14145)
Sequence (Q14145 whole entry, looked up): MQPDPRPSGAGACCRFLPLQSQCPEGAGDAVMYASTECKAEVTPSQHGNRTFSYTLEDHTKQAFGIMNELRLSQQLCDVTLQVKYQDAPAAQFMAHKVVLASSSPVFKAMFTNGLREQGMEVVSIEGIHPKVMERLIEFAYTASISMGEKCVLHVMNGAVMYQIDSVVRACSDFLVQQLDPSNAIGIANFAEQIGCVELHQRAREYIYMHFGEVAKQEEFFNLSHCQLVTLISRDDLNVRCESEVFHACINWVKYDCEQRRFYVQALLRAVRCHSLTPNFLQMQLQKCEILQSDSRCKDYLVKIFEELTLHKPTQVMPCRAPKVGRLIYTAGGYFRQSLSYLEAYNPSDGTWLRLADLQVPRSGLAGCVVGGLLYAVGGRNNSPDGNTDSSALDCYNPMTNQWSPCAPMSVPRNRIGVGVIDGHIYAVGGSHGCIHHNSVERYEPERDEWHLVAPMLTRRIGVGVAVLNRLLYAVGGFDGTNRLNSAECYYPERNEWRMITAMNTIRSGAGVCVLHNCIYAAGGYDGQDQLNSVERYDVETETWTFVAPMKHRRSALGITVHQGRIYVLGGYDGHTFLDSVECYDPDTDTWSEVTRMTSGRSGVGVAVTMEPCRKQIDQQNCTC
Assay: competitive SPR blockade of Keap1/Nrf2 binding – biophysical, dry powder, orthogonal assay for Keap1-Nrf2 interaction inhibitor project, confirmation (AID 651876)
Settings: Keap1 Kelch binding to Nrf2 peptide, inhibition, at 5 µM, stronger effect = higher value
measurement.name: inhibition (%)

Examples with their reported inhibition follow.
molecule	quantity.unit	inhibition
COC(=O)CNc1nc(NS(=O)(=O)c2c(C)cc(C)cc2C)c2ccccc2n1	%	1.1
Cc1cc(C)c(S(=O)(=O)Nc2nc(C(C(=O)OC(C)C)C(=O)C(F)(F)F)nc3ccccc23)c(C)c1 (centres undefined)	%	-4.5
CCOC(=O)C(C(=O)OCC)c1nc(NS(=O)(=O)c2c(C)cc(C)cc2C)c2ccccc2n1	%	-6

a = O=C(NCCCN1CCOCC1)c1ccccc1C(=O)NC[C@@H]1c2ccccc2CCN1C(=O)C1CCCCC1C(=O)O (some centres undefined)
b = O=C(O)C1CCCCC1C(=O)Nc1ccccc1CN1C(=O)c2ccccc2C1=O (centres undefined)
Lab log: flag the item ( a or b ) with the smaller inhibition figure. Answer by stating the label of the chosen item.
b
(b: 3.8%, a: 6.9%)

A = O=C(NC[C@@H]1c2ccccc2CCN1C(=O)[C@@H]1CCCC[C@@H]1C(=O)O)c1ccccc1CO
B = O=C(O)[C@H]1CCCC[C@H]1C(=O)N1CCc2ccccc2[C@H]1CNS(=O)(=O)c1ccc([N+](=O)[O-])cc1
Looking at A and B , which one comes out lower in inhibition terms? Write down the label of the entry you select.
B

I = O=C(Cc1ccccc1)NC[C@@H]1c2ccccc2CCN1C(=O)[C@@H]1CCCC[C@@H]1C(=O)O
II = COC(=O)C(C(=O)OC)c1cc(NS(=O)(=O)c2c(C)cc(C)cc2C)c2ccccc2c1O
I need your help: which of the pair I , II has higher inhibition? # answer = label of selected item
II

Data origin: PubChem BioAssay AID651876
